From: patent US20240084003A1

As shown below, each of these binders has a reported OD450 value.
TESTED TARGET: T1, murine CD22 protein (ACROBiosystems, SI2-M52Ha) (murine, UniProt P35329 22-708)
T1 construct: extracellular domain; also called murine CD22-ECD; murine CD22-ECD-His
T1 sequence (looked up): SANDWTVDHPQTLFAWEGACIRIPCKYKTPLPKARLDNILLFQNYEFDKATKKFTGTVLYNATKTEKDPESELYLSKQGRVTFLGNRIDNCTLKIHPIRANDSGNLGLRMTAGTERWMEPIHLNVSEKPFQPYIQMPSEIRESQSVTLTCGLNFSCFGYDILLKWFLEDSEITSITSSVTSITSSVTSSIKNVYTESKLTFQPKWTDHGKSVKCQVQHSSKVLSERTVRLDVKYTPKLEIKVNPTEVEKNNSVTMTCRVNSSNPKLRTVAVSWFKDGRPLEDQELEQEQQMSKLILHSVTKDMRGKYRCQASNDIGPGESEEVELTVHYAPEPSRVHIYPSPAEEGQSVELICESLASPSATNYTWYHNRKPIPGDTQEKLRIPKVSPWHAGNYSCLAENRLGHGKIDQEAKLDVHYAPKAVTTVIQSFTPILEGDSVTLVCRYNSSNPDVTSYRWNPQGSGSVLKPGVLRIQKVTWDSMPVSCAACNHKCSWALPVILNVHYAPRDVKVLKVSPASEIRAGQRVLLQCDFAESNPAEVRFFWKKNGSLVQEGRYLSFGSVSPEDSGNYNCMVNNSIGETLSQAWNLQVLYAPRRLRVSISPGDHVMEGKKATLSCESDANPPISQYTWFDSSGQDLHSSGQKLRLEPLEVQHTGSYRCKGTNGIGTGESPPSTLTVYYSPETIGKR
ASSAY PROCEDURE: ELISA, coated murine CD22, 0.1 nM Ab

{"BINDER": "F2.343.16 human-murine chimeric antibody (antibody, human IgG1, lambda, V domains shown, Chimeric, human IgG1 / lambda; VL tied by name) VH: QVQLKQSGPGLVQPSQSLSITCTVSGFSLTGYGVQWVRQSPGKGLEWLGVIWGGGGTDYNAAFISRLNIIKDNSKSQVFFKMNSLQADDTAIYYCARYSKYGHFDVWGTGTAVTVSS VL: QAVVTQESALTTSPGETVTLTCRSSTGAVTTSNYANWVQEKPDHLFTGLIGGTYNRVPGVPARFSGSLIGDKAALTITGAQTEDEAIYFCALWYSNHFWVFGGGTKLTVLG", "OD450": "0.05 OD450"}
{"BINDER": "F1.161.7 human-murine chimeric antibody (antibody, human IgG1, kappa, V domains shown, Chimeric, human IgG1 / kappa) VH: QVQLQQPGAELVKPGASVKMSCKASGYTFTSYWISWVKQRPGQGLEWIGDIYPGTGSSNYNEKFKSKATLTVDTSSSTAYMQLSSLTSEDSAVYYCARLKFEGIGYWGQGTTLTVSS VL: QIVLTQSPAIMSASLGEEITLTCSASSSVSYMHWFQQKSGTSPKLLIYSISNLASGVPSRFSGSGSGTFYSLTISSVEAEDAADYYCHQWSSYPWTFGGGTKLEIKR", "OD450": "0.05 OD450"}
{"BINDER": "F1.120.15 human-murine chimeric antibody (antibody, human IgG1, kappa, V domains shown, Chimeric, human IgG1 / kappa) VH: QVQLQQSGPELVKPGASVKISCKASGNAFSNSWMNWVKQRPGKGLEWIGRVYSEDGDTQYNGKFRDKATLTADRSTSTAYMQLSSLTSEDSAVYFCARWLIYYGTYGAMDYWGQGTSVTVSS VL: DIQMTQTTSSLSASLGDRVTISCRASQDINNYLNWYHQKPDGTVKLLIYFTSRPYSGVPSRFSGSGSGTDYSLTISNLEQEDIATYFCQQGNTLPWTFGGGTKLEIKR", "OD450": "0.05 OD450"}
{"BINDER": "F1.245.2 human-murine chimeric antibody (antibody, human IgG1, kappa, V domains shown, Chimeric, human IgG1 / kappa) VH: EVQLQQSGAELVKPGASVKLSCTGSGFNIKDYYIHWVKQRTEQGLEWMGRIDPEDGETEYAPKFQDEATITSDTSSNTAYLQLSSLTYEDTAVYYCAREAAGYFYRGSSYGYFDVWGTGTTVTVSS VL: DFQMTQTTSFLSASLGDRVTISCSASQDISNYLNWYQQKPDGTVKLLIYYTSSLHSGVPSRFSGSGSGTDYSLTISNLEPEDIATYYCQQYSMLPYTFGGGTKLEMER", "OD450": "0.06 OD450"}
{"BINDER": "F2.55.1 human-murine chimeric antibody (antibody, human IgG1, lambda, V domains shown, Chimeric, human IgG1 / lambda; VL tied by name) VH: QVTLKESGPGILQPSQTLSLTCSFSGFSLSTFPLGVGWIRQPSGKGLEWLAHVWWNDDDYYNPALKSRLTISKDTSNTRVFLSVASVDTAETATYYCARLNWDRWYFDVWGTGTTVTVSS VL: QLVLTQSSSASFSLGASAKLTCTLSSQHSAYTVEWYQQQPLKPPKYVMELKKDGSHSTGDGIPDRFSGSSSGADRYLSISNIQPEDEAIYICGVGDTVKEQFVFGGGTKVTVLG", "OD450": "0.06 OD450"}
